The reader will find reported pIC50 values listed item by item below.
study_system: D3 (hD3 receptor) (Homo sapiens, UniProt P35462)
Sequence (P35462 whole entry): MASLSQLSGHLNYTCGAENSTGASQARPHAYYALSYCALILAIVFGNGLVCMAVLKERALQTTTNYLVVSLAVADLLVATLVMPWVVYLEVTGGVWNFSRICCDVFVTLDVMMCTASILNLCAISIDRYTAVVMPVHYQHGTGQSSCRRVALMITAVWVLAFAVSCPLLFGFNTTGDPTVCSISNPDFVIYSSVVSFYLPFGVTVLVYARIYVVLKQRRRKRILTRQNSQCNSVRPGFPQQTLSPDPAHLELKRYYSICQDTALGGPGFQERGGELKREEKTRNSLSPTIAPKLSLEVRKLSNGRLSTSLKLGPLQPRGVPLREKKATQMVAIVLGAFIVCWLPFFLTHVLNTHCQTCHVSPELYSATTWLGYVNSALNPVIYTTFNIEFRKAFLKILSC
measurement_description: Radioligand binding assay, dopamine D3
Here pIC50 is given on a logarithmic scale as minus log10 of the concentration in mol/L.

In the examples that follow, each entry is paired with its recorded pIC50.
cpd_smiles=CN1CCN(c2cc(Cl)cc3c2c(=O)n(Cc2cccc(Cl)c2)c(=O)n3Cc2ccccc2)CC1 obs_value=6.47
cpd_smiles=CN1CCN(c2cc(Cl)cc3c2c(=O)n(Cc2ccccc2)c(=O)n3Cc2ccccc2)CC1 obs_value=5.81
cpd_smiles=Cc1ccc(Cn2c(=O)c3c(N4CCN(C)CC4)cc(Cl)cc3n(Cc3ccccc3)c2=O)o1 obs_value=5.55
cpd_smiles=O=c1c2c(N3CCNCC3)cc(Cl)cc2n(Cc2ccccc2)c(=O)n1CCc1ccccc1 obs_value=5.55

stdin: Consider the compound CN1CCN(c2cc(Cl)cc3c2c(=O)n(Cc2ccccc2[N+](=O)[O-])c(=O)n3Cc2ccccc2)CC1 and give its measured pIC50.
stdout: 5.91

stdin: Report pIC50 for CN1CCN(c2cc(Cl)cc3c2c(=O)n(Cc2ccccc2Br)c(=O)n3Cc2ccccc2)CC1 please.
stdout: 6.32

stdin: Would you mind telling me what pIC50 value was observed for Cc1ccc(Cn2c(=O)c3c(N4CCN(C)CC4)cc(Cl)cc3n(Cc3ccccc3)c2=O)cc1 ?
stdout: 6.36

stdin: What does the record list as pIC50 for Cc1ccccc1Cn1c(=O)c2c(N3CCN(C)CC3)cc(Cl)cc2n(Cc2ccccc2)c1=O ?
stdout: 5.81

stdin: // pIC50 lookup, key: CN1CCN(c2cc(Cl)cc3c2c(=O)n(Cc2cccc(F)c2)c(=O)n3Cc2ccccc2)CC1
stdout: 6.31
